# Test system: L1210
# assayText: Antitumor activity against mouse L1210 cells allografted in BDF1 mouse assessed as survival at 200 mg/kg, ip administered as single dose measured on day 30 relative to vehicle-treated control
# Assay type: functional, organism-based
# Parameters: dose 200 mg/kg
Calls of active or inactive are those of the source. No cut-off for these calls is given here.
Outcomes you can answer with include only these: active, inactive

Exam item: Tell me the assay call for CCCCCCCCC(=O)OC[C@H]1O[C@@H](n2ccc(N)nc2=O)[C@@H](O)[C@@H]1OC(=O)CCCCCCCC.Cl please.
Marked response: inactive

Exam item: Tell me the assay call for CCCCCCCCCCCCCCCCCCCCCC(=O)OC[C@H]1O[C@@H](n2ccc(N)nc2=O)[C@@H](O)[C@@H]1O please.
Marked response: active

Exam item: Tell me the assay call for CCCCCCCCCCC(=O)OC[C@H]1O[C@@H](n2ccc(N)nc2=O)[C@@H](O)[C@@H]1OC(=O)CCCCCCCCCC please.
Marked response: inactive

Exam item: Tell me the assay call for CCCCCC(=O)OC[C@H]1O[C@@H](n2ccc(N)nc2=O)[C@@H](O)[C@@H]1OC(=O)CCCCC please.
Marked response: inactive

Exam item: Tell me the assay call for CCCCCCCC/C=C\CCCCCCCCCCCC(=O)O[C@H]1[C@H](O)[C@H](n2ccc(N)nc2=O)O[C@@H]1CO please.
Marked response: active

Exam item: Tell me the assay call for CCCCCCC/C=C\C(=O)O[C@H]1[C@H](O)[C@H](n2ccc(N)nc2=O)O[C@@H]1CO.Cl please.
Marked response: inactive

Exam item: Tell me the assay call for CCCCCCCC(=O)OC[C@H]1O[C@@H](n2ccc(N)nc2=O)[C@@H](O)[C@@H]1OC(=O)CCCCCCC.Cl please.
Marked response: inactive

Exam item: Tell me the assay call for CCCCCCCCC(=O)O[C@H]1[C@H](O)[C@H](n2ccc(N)nc2=O)O[C@@H]1CO please.
Marked response: inactive

Values compiled from ChEMBL document CHEMBL3272036.
